These data points were gathered from patent US7901893B2.

Molecular target: rhesus brush border membrane vesicles (Macaca mulatta, UniProt A0MJA5)
Sequence (A0MJA5 1-1332): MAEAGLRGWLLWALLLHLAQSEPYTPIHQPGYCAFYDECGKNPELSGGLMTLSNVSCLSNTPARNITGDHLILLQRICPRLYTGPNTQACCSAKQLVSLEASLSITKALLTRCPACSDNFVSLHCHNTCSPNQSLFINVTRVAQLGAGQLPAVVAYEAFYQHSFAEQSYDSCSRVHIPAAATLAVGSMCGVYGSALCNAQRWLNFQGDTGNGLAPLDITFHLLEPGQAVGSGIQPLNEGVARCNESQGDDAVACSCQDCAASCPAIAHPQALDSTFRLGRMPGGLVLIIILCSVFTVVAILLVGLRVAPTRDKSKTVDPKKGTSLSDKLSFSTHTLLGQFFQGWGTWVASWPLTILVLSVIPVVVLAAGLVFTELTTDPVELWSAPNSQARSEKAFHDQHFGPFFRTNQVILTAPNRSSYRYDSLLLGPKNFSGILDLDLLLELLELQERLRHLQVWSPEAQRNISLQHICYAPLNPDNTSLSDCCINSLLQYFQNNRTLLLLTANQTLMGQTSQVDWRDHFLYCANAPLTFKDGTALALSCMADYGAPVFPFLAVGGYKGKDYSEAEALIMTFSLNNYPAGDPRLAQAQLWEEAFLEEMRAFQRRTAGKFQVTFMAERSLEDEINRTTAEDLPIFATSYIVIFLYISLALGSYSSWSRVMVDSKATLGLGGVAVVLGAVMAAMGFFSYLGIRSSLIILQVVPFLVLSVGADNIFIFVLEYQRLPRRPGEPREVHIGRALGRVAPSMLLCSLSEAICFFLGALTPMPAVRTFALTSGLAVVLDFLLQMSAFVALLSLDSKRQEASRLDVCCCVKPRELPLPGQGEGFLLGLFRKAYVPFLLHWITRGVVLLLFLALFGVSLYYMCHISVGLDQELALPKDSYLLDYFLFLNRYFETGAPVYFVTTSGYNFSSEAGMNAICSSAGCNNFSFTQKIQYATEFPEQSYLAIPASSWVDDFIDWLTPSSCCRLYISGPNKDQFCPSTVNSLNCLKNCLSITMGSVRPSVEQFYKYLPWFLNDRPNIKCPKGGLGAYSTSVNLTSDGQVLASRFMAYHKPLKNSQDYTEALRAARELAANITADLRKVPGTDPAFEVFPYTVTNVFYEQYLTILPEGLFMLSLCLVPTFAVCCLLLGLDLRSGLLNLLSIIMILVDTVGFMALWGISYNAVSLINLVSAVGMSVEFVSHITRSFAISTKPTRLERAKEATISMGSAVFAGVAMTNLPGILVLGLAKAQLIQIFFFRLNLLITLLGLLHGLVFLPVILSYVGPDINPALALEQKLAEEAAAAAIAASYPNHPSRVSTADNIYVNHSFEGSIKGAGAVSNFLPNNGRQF
Test: biochemical
Record form. Attribute: pKi. Fill in for each entry.
In plain terms, pKi is the concentration in mol/L turned into minus its base-10 logarithm.

Record summary for O=C(O)[C@H]1O[C@@H](Oc2ccc([C@@H]3[C@@H](CC[C@H](O)c4ccc(F)cc4)C(=O)N3c3ccc(F)cc3)cc2)[C@H](O)[C@@H](O)[C@@H]1O [Compound 1, Ezetimibe glucuronide] : reported pKi = 7.41

Lab book: pKi of CS(=O)(=O)NCC#Cc1ccc(N2C(=O)[C@H](CC[C@H](O)c3ccc(F)cc3)[C@H]2c2ccc(O[C@@H]3O[C@H](C(=O)O)[C@@H](O)[C@H](O)[C@H]3O)cc2)cc1 [Compound 2] noted as 7.42

====

Target: human NPC1L1 (Homo sapiens, UniProt Q9UHC9, G1187D/M616T/T1073A)
Sequence (Q9UHC9 22-1332 isoform Q9UHC9-2 M616T/T1046A/G1160D limits assumed): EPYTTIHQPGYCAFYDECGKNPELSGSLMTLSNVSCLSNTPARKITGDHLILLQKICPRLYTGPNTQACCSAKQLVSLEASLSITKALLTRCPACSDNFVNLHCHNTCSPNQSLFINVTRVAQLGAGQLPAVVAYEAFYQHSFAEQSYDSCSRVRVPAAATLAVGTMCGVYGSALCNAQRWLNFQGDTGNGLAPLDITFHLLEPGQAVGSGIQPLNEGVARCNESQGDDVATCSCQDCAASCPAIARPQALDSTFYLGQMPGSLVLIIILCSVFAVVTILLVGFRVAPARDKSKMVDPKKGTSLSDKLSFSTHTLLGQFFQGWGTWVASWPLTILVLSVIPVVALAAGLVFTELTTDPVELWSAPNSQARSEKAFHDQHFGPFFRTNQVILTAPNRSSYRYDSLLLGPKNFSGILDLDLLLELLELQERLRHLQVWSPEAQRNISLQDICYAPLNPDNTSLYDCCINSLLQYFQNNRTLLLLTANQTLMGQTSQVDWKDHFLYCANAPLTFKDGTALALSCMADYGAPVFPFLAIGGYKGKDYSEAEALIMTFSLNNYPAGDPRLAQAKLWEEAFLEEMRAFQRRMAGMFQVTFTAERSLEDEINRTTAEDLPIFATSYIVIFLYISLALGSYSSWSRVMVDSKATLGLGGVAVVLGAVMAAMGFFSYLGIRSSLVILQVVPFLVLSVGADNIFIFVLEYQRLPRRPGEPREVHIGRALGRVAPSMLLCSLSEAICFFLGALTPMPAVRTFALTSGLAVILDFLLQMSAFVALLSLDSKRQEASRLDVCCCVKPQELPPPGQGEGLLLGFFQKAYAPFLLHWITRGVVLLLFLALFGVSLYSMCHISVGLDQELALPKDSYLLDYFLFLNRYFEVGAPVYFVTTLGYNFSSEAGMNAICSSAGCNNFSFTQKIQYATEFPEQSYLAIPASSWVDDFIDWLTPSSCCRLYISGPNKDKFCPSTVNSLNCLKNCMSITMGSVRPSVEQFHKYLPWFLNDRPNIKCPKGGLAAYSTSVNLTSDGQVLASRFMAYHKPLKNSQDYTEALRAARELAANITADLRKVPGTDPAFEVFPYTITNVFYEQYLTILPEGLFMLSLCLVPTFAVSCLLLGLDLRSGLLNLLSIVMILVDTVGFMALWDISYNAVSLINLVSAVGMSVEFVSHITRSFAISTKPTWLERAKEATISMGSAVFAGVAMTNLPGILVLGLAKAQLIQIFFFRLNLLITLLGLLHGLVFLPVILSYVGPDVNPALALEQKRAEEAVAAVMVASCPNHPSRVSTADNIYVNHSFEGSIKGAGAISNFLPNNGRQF
Experiment: Binding to membranes of HEK-293 cells expressing recombinant human NPC1L1
Conditions: 0.03% sodium taurocholate and 0.05% digitonin; 1.25 mg protein/ml, 100 nM 1
Recorded endpoint: Ki (nM)
Field: numeric (nM). Do not append units.

Reported Ki for O=C(O)[C@H]1O[C@@H](Oc2ccc([C@@H]3[C@@H](CC[C@@H](O)c4ccc(F)cc4)C(=O)N3c3ccc(F)cc3)cc2)[C@H](O)[C@@H](O)[C@@H]1O was 1300

Just so you know, measured Ki for O=C(O)[C@H]1O[C@@H](Oc2ccc([C@@H]3[C@@H](CC[C@H](O)c4ccc(F)cc4)C(=O)N3c3ccc(F)cc3)cc2)[C@H](O)[C@@H](O)[C@@H]1O [Compound 1, Ezetimibe glucuronide] came out at 220

Record O=C(CC[C@H]1C(=O)N(c2ccc(F)cc2)[C@@H]1c1ccc(O[C@@H]2O[C@H](C(=O)O)[C@@H](O)[C@H](O)[C@H]2O)cc1)c1ccc(F)cc1 , field Ki: 14000

The reported value for O=C(O)[C@H]1O[C@@H](Oc2ccc([C@@H]3[C@@H](CCCc4ccc(F)cc4)C(=O)N3c3ccc(F)cc3)cc2)[C@H](O)[C@@H](O)[C@@H]1O in terms of Ki is 1000

Please fill in: Ki reported for O=C(O)[C@H]1O[C@@H](Oc2ccc([C@@H]3[C@@H](CC[C@H](O)c4ccc(F)cc4)C(=O)N3c3ccc(F)cc3)c(O)c2)[C@H](O)[C@@H](O)[C@@H]1O = 210

Value of measured Ki for the entry O=C(O)C1OC(Oc2ccc(C3C(CCC(O)c4ccc(F)cc4)C(=O)N3c3ccc(F)cc3)cc2)C(O)C(O)C1O (single isomer, unassigned) : 130000

====

Target: rhesus brush border membrane vesicles (Macaca mulatta)
Assay: Binding assay with rhesus brush border membrane vesicles
Conditions: Kd (equilibrium saturation binding, Scatchard), ^3H-ezetimibe glucuronide, rhesus membranes, no detergent
Recorded endpoint: Kd

Field Kd (entry O=C(O)[C@H]1O[C@@H](Oc2ccc([C@@H]3[C@@H](CC[C@H](O)c4ccc(F)cc4)C(=O)N3c3ccc(F)cc3)cc2)[C@H](O)[C@@H](O)[C@@H]1O [Compound 1, Ezetimibe glucuronide] ) reads 41 nM

====

Molecular target: rhesus brush border membrane vesicles (Macaca mulatta, UniProt A0MJA5)
Assay: Binding assay with rhesus brush border membrane vesicles
Conditions: Kd predicted from rate constants (Kd=koff/kon), rhesus membranes
Recorded endpoint: Kd (nM)
Please respond with the number in nM and leave the unit unwritten.

Note to self: Kd recorded for O=C(O)[C@H]1O[C@@H](Oc2ccc([C@@H]3[C@@H](CC[C@H](O)c4ccc(F)cc4)C(=O)N3c3ccc(F)cc3)cc2)[C@H](O)[C@@H](O)[C@@H]1O [Compound 1, Ezetimibe glucuronide] was 32

====

Target: rat brush border membrane vesicles (Rattus norvegicus, UniProt Q6T3U3)
Construct: from tissue; host or cells: rat (male Sprague-Dawley) small-intestinal mucosa, brush border membrane vesicles
Assay: Binding assay with rat brush border membrane vesicles
Settings: rat brush border membrane vesicles; read-out: RAT IC50 (nM), inhibition of ^3H-EZE-gluc binding
Entries whose IC50 is below 4000 nM take Y; entries at or above 4000 nM take N.

Asked: I wonder whether O=C(CC[C@H]1C(=O)N(c2ccc(F)cc2)[C@@H]1c1ccc(O[C@@H]2O[C@H](C(=O)O)[C@@H](O)[C@H](O)[C@H]2O)cc1)c1ccc(F)cc1 has IC50 below 4000 nM. Can you tell?
Given back: N

Asked: In plain terms, does O=C(O)[C@H]1O[C@@H](Oc2ccc([C@@H]3[C@@H](CCCc4ccc(F)cc4)C(=O)N3c3ccc(F)cc3)cc2)[C@H](O)[C@@H](O)[C@@H]1O come in under 4000 nM for IC50?
Given back: Y

Asked: Consider the molecule O=C(O)C1OC(Oc2ccc(C3C(CCC(O)c4ccc(F)cc4)C(=O)N3c3ccc(F)cc3)cc2)C(O)C(O)C1O (single isomer, unassigned) . Is its IC50 strictly less than 4000 nM?
Given back: N

Asked: IC50 strictly < 4000 nM for this molecule? O=C(O)[C@H]1O[C@@H](Oc2ccc([C@@H]3[C@@H](CC[C@H](O)c4ccc(F)cc4)C(=O)N3c3ccc(F)cc3)cc2)[C@H](O)[C@@H](O)[C@@H]1O [Compound 1, Ezetimibe glucuronide]
Given back: Y

Asked: Is the reported IC50 for O=C(O)[C@H]1O[C@@H](Oc2ccc([C@@H]3[C@@H](CC[C@H](O)c4ccc(F)cc4)C(=O)N3c3ccc(F)cc3)c(O)c2)[C@H](O)[C@@H](O)[C@@H]1O strictly below 4000 nM?
Given back: Y

====

Target: rat NPC1L1 (Rattus norvegicus, UniProt Q6T3U3)
Test: Binding to membranes of HEK-293 cells expressing recombinant rat NPC1L1
Parameters: expressed in transfected cells; host or cells: HEK-293 cells (ATCC), transient, pCR3.1; membranes
Conditions: 0.03% sodium taurocholate and 0.05% digitonin; 1.25 mg protein/ml, 100 nM 1
Procedure: Transient expression of NPC1L1. Plasmid pCR3.1 expressing rat NPC1L1 (Genbank AY437867) or human NPC1L1 (Genbank AY437865) were prepared using standard molecular biology protocols. HEK-293 cells (ATCC) were seeded at 10×10^6 cells per T-225 flask (Corning) in DMEM containing 10% fetal calf serum, 4.5 g/L D-glucose and L-glutamine, 18 hours prior to transfection. They were transiently transfected with 25 μg of DNA using Fugene transfection reagent (Roche Biochemical) at a ratio of 6:1 Fugene:DNA. […]
Criterion: Ki strictly less than 400 nM. Met: t. Not met: f.

Asked: Please indicate whether the reported Ki of O=C(O)[C@H]1O[C@@H](Oc2ccc([C@@H]3[C@@H](CCCc4ccc(F)cc4)C(=O)N3c3ccc(F)cc3)cc2)[C@H](O)[C@@H](O)[C@@H]1O [Compound 3] is strictly below 400 nM.
Given back: f

Asked: API: query returns whether the molecule falls strictly under 400 nM in Ki. Query: O=C(O)[C@H]1O[C@@H](Oc2ccc([C@@H]3[C@@H](CC[C@@H](O)c4ccc(F)cc4)C(=O)N3c3ccc(F)cc3)cc2)[C@H](O)[C@@H](O)[C@@H]1O [Compound 5]
Given back: f

Asked: Decide: Ki of O=C(O)[C@H]1O[C@@H](Oc2ccc([C@@H]3[C@@H](CC[C@H](O)c4ccc(F)cc4)C(=O)N3c3ccc(F)cc3)c(O)c2)[C@H](O)[C@@H](O)[C@@H]1O [Compound 7] strictly below 400 nM?
Given back: t

Asked: Hello, is Ki of the following molecule strictly smaller than 400 nM? O=C(O)C1OC(Oc2ccc(C3C(CCC(O)c4ccc(F)cc4)C(=O)N3c3ccc(F)cc3)cc2)C(O)C(O)C1O (single isomer, unassigned) [Compound 4]
Given back: f

Asked: Does the reported Ki of O=C(O)[C@H]1O[C@@H](Oc2ccc([C@@H]3[C@@H](CC[C@H](O)c4ccc(F)cc4)C(=O)N3c3ccc(F)cc3)cc2)[C@H](O)[C@@H](O)[C@@H]1O [Compound 1, Ezetimibe glucuronide] stay below 400 nM?
Given back: t

Asked: Please determine if O=C(CC[C@H]1C(=O)N(c2ccc(F)cc2)[C@@H]1c1ccc(O[C@@H]2O[C@H](C(=O)O)[C@@H](O)[C@H](O)[C@H]2O)cc1)c1ccc(F)cc1 [Compound 6] is below 400 nM in terms of Ki.
Given back: f

====

Target: mouse intestinal brush border membranes (Mus musculus, UniProt Q6T3U4)
Construct: from tissue; host or cells: mouse small-intestinal mucosa (C57BL/6J; wild-type littermates in the knockout comparison), brush border membrane vesicles
Assay: Binding assay with mouse (wild type) brush border membrane vesicles
Details: wild-type mice; 5 mg/ml protein, 500 nM 1, 0.03% taurocholate, 0.05% digitonin; read-out: Ki, competition of unlabeled ezetimibe glucuronide against 1
Recorded endpoint: Ki (µM)
Kindly provide the numeric value in µM only, without the unit symbol.

Lab note: O=C(O)[C@H]1O[C@@H](Oc2ccc([C@@H]3[C@@H](CC[C@H](O)c4ccc(F)cc4)C(=O)N3c3ccc(F)cc3)cc2)[C@H](O)[C@@H](O)[C@@H]1O [Compound 1, Ezetimibe glucuronide] gave Ki of 12
